B1: ZBTB22 (parent)
chain: HTGLKPYECGVCAKKFMWRDSFMR

# Variants of: B1
# assay-explanation: protein stability index of a GFP-peptide fusion (GPS, HEK-293T) (PSI 1-6); higher = more stable;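 further: lentivirally expressed fusions sorted by FACS into six bins by GFP to DsRed ratio, PSI derived from sequencing read proportions per bin multiplied by bin number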
# settings: c terminus: a fixed tail appended
protein stability index of 2 or higher: YES. Under 2: NO.

Record R24M ; criterion: protein stability index no lower than 2. Met? YES

Please tell me: is the variant V11G at or over 2 in terms of protein stability index? NO

Would you say V11K shows protein stability index at minimum 2? YES

Is protein stability index for M17D at or above 2? NO

Could you verify whether the entry F16A shows protein stability index of no less than 2? NO

Does protein stability index meet or surpass 2 for R24I ? NO

Entry Y7E : is its protein stability index no less than 2? NO

Reported protein stability index at or above 2? P6A YES

Would you say K14T shows protein stability index at minimum 2? YES

Would you say R19K shows protein stability index at minimum 2? YES

// inclusive: protein stability index at least 2? input: D20N YES

# check: protein stability index of K14Y is greater than or equal to 2 YES

Item G3A with protein stability index of 2 or above? YES

Is the recorded value of protein stability index equal to or greater than 2 for this variant? K14W YES

Please indicate if the recorded protein stability index for R19E meets or exceeds 2. NO

Answer whether protein stability index of F22H is greater than or equal to 2. NO

Entry G10T : is its protein stability index no less than 2? NO

hey, is protein stability index for this one >= 2? M23R YES

Test whether the variant H1S records protein stability index of 2 or higher. NO

Could you verify whether the entry M23I shows protein stability index of no less than 2? NO

Has A13D a recorded protein stability index greater than or equal to 2? NO

Is it the case that V11D has protein stability index reaching or exceeding 2? YES

Tell me whether protein stability index is at least 2 here: K15Y YES

Is protein stability index at least 2? Consider R19T YES

Check the entry P6E : does protein stability index equal or exceed 2? YES

Identify whether the reported protein stability index of the following variant is 2 or greater: V11I YES

Decide: is the reported value of protein stability index for S21T equal to or greater than 2? NO

Is protein stability index for K14A at or above 2? NO

Check this variant for protein stability index at or above 2: C9L YES

Given the entry P6I , answer whether its protein stability index meets or surpasses 2. NO

Form field: protein stability index at least 2? Entry: R24F YES

Given G3N , state whether its protein stability index is at least 2. YES

# check: protein stability index of P6N is greater than or equal to 2 NO

protein stability index >= 2 for L4C ? NO

Reported protein stability index at or above 2? F16N NO

Record L4F ; criterion: protein stability index no lower than 2. Met? YES

Evaluate R19S : protein stability index at minimum 2? YES

Determine whether measured protein stability index meets or exceeds 2 for W18L YES

Check if protein stability index >= 2 (inclusive). Item: Y7T YES

Does protein stability index meet or surpass 2 for C12A ? NO

Assess whether reported protein stability index for S21Y sits at 2 or higher. YES

Could you verify whether the entry P6F shows protein stability index of no less than 2? YES

Given M17R , state whether its protein stability index is at least 2. NO

Decide: protein stability index of C12E >= 2? YES

Determine whether this variant has protein stability index no lower than 2: H1A YES

Does the reported protein stability index for R24G fall at or above the 2 mark? NO

Is reported protein stability index greater than or equal to 2 here: C12N YES

Could you tell me if the measured protein stability index of K15I reaches 2 or more? NO

Decide: is the reported value of protein stability index for F16E equal to or greater than 2? NO

Is it the case that M23G has protein stability index reaching or exceeding 2? NO

Determine whether this variant has protein stability index no lower than 2: R24D NO

Would you say K14I shows protein stability index at minimum 2? NO

API: above_or_equal(metric=protein stability index, cutoff=2) for item K5D YES

Form field: protein stability index at least 2? Entry: H1T YES

Does the reported protein stability index for F16P fall at or above the 2 mark? YES

Hello, I need to know if K14E has measured protein stability index not below 2. Thanks! NO

Decide: protein stability index of C9S >= 2? NO

Does the variant M23N have recorded protein stability index that is 2 or more? YES

Given F16Q , state whether its protein stability index is at least 2. YES

protein stability index >= 2 for S21H ? YES

Item K5N with protein stability index of 2 or above? NO

Determine whether measured protein stability index meets or exceeds 2 for D20A YES

Check if protein stability index >= 2 (inclusive). Item: C9M YES
